Listed here: items and their measured MIC.
Test system: P. aeruginosa NB52023-CDK0006 (gyrA T83I, parC S87L)
Experiment: microbe, parasite or virus in culture
Assay type: cell-based
Details: Pseudomonas aeruginosa, 20 h, read-out: Antibacterial activity (MIC) NB52023-CDK0006

Here is how some molecules turned out for MIC.
COCc1cc(=O)n(C2CC2)c2c(C)c(N3CC[C@@H]([C@H](C)N)C3)c(F)cc12 [Example 48] :: 16 µg/mL
CC(=O)NCCOc1cc(=O)n(C2CC2)c2c(C)c(N3CC[C@@H]([C@H](C)N)C3)c(F)cc12 [Example 54] :: > 32 µg/mL
Cc1c(N2CC[C@@H]([C@H](C)N)C2)c(F)cc2c(C3=NOS(=O)N3)cc(=O)n(C3CC3)c12 (stereo partly drawn) [Example 41] :: 8 µg/mL
Cc1c(N2CCC(F)(CN)C2)c(F)cc2c(CN)cc(=O)n(C3CC3)c12 (stereo not drawn) [Example 81.33] :: 1 µg/mL
Cc1c(N2CC[C@@H]([C@H](C)N)C2)c(F)cc2c(OCCN)cc(=O)n(C3CC3)c12 [Example 51] :: 2 µg/mL
Cc1c(N2CCNCC2)c(F)cc2c(C#N)cc(=O)n(C3CC3)c12 [Example 32] :: 32 µg/mL

Record Cc1c(N2CC[C@@H]([C@H](C)N)C2)c(F)cc2c(C(N)=O)cc(=O)n(C3CC3)c12 [Example 34] , field MIC: 16 µg/mL

Record Cc1c(N2CC[C@@H]([C@H](C)N)C2)c(F)cc2c(OCCCC(=O)NO)cc(=O)n(C3CC3)c12 [Example 60] , field MIC: > 32 µg/mL

Record Cc1c(N2CCNCC2)c(F)cc2ccc(=O)n(C3CC3)c12 [Example 9.3] , field MIC: 16 µg/mL

Record COC(=O)C#Cc1cc(=O)n(C2CC2)c2c(C)c(N3CC[C@@H]([C@H](C)N)C3)c(F)cc12 [Example 26] , field MIC: 32 µg/mL

Record COc1c(N2CCC(CN)C2)c(F)cc2ccc(=O)n(C3CC3)c12.O=C(O)C(F)(F)F (stereo not drawn) [Example 110] , field MIC: 32 µg/mL

Record COc1cc(=O)n(C2CC2)c2c(C)c(N3CC[C@@H]([C@H](C)N)C3)ccc12 [Example 68] , field MIC: > 32 µg/mL

###

Listed here: items and their measured MIC.
Tested on: P. aeruginosa NB52023 (efflux deficient K1542, ΔmexX ΔmexB)
Experiment: microbe, parasite or virus in culture
Assay type: cell-based
Conditions: Pseudomonas aeruginosa, 20 h, read-out: Antibacterial activity (MIC) NB52023

Here is how some compounds turned out for MIC.
Cc1c(N2CC[C@@H]([C@H](C)N)C2)c(F)cc2c(OCCCc3n[nH]c(=O)o3)cc(=O)n(C3CC3)c12 :: > 32 µg/mL
Cc1c(N2CCC(CN)C2)c(F)cc2c(CN(C)C)cc(=O)n(C3CC3)c12.O=C(O)C(F)(F)F (stereo not shown) :: 16 µg/mL
Cc1c(N2CC[C@H](CN)C2)c(F)cc2c(C#N)cc(=O)n(C3CC3)c12 :: 2 µg/mL

Record Cc1c(N2CC[C@@H]([C@H](C)N)C2)c(F)cc2c(OCCC/C(N)=N\O)cc(=O)n(C3CC3)c12 , field MIC: 32 µg/mL

Record COCc1cc(=O)n(C2CC2)c2c(C)c(N3CC[C@@H]([C@H](C)N)C3)c(F)cc12 , field MIC: 16 µg/mL

Record CC(=O)NCCOc1cc(=O)n(C2CC2)c2c(C)c(N3CC[C@@H]([C@H](C)N)C3)c(F)cc12 , field MIC: > 32 µg/mL

Record Cc1c(N2CCC(F)(CN)C2)c(F)cc2c(CN)cc(=O)n(C3CC3)c12 (stereo not shown) , field MIC: 0.5 µg/mL
